# Test System: Ataxin-2 (Homo sapiens) (UniProt Q99700)
# Sequence (Q99700 whole entry): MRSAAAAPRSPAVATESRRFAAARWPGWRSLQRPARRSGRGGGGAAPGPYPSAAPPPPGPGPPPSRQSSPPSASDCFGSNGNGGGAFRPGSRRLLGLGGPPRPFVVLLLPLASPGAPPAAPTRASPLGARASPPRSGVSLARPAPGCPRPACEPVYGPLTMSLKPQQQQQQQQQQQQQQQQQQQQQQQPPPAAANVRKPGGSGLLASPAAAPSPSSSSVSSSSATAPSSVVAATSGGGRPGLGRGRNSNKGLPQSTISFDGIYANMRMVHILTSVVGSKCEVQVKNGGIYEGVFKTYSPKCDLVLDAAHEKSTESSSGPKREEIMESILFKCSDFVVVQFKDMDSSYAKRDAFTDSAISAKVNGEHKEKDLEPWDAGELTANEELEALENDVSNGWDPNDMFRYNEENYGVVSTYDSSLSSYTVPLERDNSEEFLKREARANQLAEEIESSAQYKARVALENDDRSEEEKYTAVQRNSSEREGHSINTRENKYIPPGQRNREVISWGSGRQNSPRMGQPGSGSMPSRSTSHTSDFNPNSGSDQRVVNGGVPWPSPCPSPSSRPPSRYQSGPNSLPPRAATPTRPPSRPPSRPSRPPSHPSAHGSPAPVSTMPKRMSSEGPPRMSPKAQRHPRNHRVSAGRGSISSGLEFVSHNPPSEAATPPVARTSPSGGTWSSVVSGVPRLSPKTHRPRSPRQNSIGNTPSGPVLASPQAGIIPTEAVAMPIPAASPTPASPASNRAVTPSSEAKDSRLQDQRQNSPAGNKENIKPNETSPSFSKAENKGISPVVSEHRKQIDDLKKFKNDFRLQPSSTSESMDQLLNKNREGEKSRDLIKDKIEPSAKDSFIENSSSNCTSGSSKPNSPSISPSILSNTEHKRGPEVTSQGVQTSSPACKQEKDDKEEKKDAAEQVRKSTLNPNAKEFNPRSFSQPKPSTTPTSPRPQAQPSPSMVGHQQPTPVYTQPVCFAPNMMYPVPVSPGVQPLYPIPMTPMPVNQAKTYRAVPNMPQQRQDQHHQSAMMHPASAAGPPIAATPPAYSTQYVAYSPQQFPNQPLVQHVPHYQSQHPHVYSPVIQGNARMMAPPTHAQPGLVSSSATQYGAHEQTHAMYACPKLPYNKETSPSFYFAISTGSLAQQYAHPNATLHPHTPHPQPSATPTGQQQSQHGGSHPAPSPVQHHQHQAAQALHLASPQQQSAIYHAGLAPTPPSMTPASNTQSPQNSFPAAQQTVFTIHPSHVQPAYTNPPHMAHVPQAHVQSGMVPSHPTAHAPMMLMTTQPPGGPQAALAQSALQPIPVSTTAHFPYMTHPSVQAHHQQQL
# Protocol Notes: qHTS for Inhibitors of ATXN expression.
# Format: functional
Hit rate of the full screen: of about 400,000 compounds, about 2,100 (0.53%) were called active. Roughly 14% stayed inconclusive and do not appear here. No rule for the calls is given here. Many of the other results were omitted from the sample, so actives are more common in it than they were.
Choose one outcome from this list and give only that: active, inactive

Cc1ccc(NC(=O)CCc2nnc3ccc(N4CCC5(CC4)OCCO5)nn23)nc1 | inactive
CCc1nnc(NS(=O)(=O)c2ccc(Nc3ccc([N+](=O)[O-])c4nonc34)cc2)s1 | active
CC1C(=O)C(C)C(c2cc(Cl)ccc2O)NC1c1cc(Cl)ccc1O (stereo not given) | active
Fc1ccc(-[n+]2nc(Nc3ccccc3)sc2-c2c(Cl)cccc2Cl)cc1 | active

Then there is this compound:
What was the test verdict on `CCc1nnc(NS(=O)(=O)c2ccc(NC(=O)c3cccc(Cl)c3)cc2)s1` ?
inactive

###

# Test System: Ataxin-2 (Homo sapiens)
# Protocol Notes: qHTS for Inhibitors of ATXN expression.
# Format: functional
In all, about 400,000 compounds went through this assay and about 2,100 (0.53%) were called active. About 14% were inconclusive and are not listed. Shown is part of a subset that was picked to be rich in actives.
Reported Property: Potency

N#Cc1ncc(Cc2ccccc2)nc1C#N | 39.8 µM (active)
COc1ccc(Nc2c3c(nc4ccccc24)CCC3)cc1Cl | 28.2 µM (active)
Cc1cccc(C2=NN(c3ccccc3)[C@@H](C(=O)N3CCOC3=O)[C@@H]2c2ccc(F)cc2)c1 | inactive
Cc1ccc2cc(C#N)c(NCc3ccccc3)nc2c1 | inactive
N#Cc1ccc(/C=C/C(=O)c2cccnc2)cc1 | 25.1 µM (active)

Complete the entry with Potency for `COc1cc(N)ccc1Nc1c2ccccc2nc2ccccc12`
inactive

Complete the entry with Potency for `COc1ccccc1Nc1c2ccccc2nc2ccccc12`
inactive

Complete the entry with Potency for CCOC(=O)c1cc2c(=O)n3ccccc3nc2n(CC(C)C)/c1=N\C(=O)C(C)Oc1ccccc1 (stereo unspecified)
inactive

Complete the entry with Potency for CC(CN1CCCCC1)OC(=O)c1ccco1 (stereo unspecified)
inactive

Complete the entry with Potency for `O=C(/C=C/c1cccc(Cl)c1)OCC(=O)c1ccc[nH]1`
inactive

Complete the entry with Potency for `CC(C)Cn1c(N)c(C(=O)COC(=O)c2cc3ccccc3cc2O)c(=O)n(C)c1=O`
inactive

###

# Test System: Ataxin-2 (Homo sapiens)
# Protocol Notes: qHTS for Inhibitors of ATXN expression.
# Format: functional
Screen size: about 400,000 compounds; about 2,100 (0.53%) were called active. Inconclusive results (about 14%) are left out. The rule behind the calls is not given here. For the sample, actives were picked, then their nearest neighbours and some compounds at random.
Choose one outcome from this list and give only that: active, inactive

Some entries whose results are on file:
CN(Cc1ccc(Cl)s1)C(=O)CCl | active
N=c1oc2cc(O)ccc2cc1C(=O)Nc1ccc(F)cc1 | inactive

What was the test verdict on `CCCn1nc(NC(=O)COC)c2cc3cccc(C)c3nc21` ?
inactive

What was the test verdict on `CCCN1CNc2c(c(=O)[nH]c(=S)n2CCc2ccccc2)C1` ?
inactive

What was the test verdict on `CCOc1ccc(CN(C)C(=O)CCl)cc1` ?
active

What was the test verdict on `CCCCN1CCc2c(c3ccccc3n2Cc2ccccc2)C1` ?
active

What was the test verdict on `CN1CCc2c(sc(NC(=O)c3ccc(S(=O)(=O)N4CCCCCC4)cc3)c2C(N)=O)C1` ?
inactive

What was the test verdict on `O=C(O)c1ccccc1N(Cc1ccccc1)C(=O)COc1ccccc1` ?
inactive

What was the test verdict on `CCN(c1ccc(N/C=C2/C(=O)N(Cc3ccc(OC)cc3)C(=O)c3ccccc32)cc1)C(C)C` ?
inactive
